Biological target: BRD4 BD1 (Homo sapiens, UniProt O60885)
Assay: AlphaScreen binding assay, BRD4 Bromodomain 1
value-kind: IC50

>>> assay_value("CC(=O)N1c2ccc(-c3ccc(C(=O)N(C)c4ccccn4)cc3)cc2N(C(=O)OC(C)C)C[C@@H]1C [Example I-552]")
"100 to 1000 nM"

Turning now to a further compound:
Please give the measured IC50 for this compound: COC(=O)N1c2ccc(-c3ccc(NS(C)(=O)=O)cc3)cc2N(C(=O)Oc2cccnc2)C[C@@H]1C [Example I-1278]
1000 to 10000 nM

====

Target: BRD4 BD1 (Homo sapiens, UniProt O60885)
Test: AlphaScreen binding assay, BRD4 Bromodomain 1
value-kind: IC50

>>> assay_value("CC(=O)N1c2ccc(-c3cnn(CC4CCS(=O)(=O)CC4)c3)cc2N(C(=O)C2CC2)C[C@@H]1C [Example I-684]")
"100 to 1000 nM"
>>> assay_value("CC(=O)N1c2ccc(-c3ccc(N4CCOCC4)cc3)cc2N(C(=O)OC2CCCCC2)C[C@@H]1C [Example I-1229]")
"100 to 1000 nM"
>>> assay_value("CC(=O)N1c2ccc(-c3cnn(C4COC4)c3)cc2N(C(=O)OC(CF)CF)C[C@@H]1C [Example I-72]")
"100 to 1000 nM"
>>> assay_value("CC(=O)N1c2ccc(-c3ccc(S(=O)(=O)NCCO)cc3)cc2N(C(=O)OC(C)C)C[C@@H]1C [Example I-1038]")
"100 to 1000 nM"
>>> assay_value("CC(=O)N1c2ccc(-c3ccc(S(C)(=O)=O)cc3)cc2N(C(=O)c2cccc(N)c2)C[C@@H]1C [Example I-985]")
"> 10000 nM"

Would you mind telling me what IC50 value was observed for CC(=O)N1c2ccccc2N(C(=O)c2ccc(F)cn2)C[C@@H]1C [Example I-763] ?
> 10000 nM

Give its IC50 value. Item: CC(=O)N1c2ccc(-c3cnn(C4CCC4)c3)cc2N(C(=O)OC(C)C)C[C@@H]1C [Example I-24]
< 100 nM

What does the data say about its IC50? Entry: COc1cccc2[nH]c(C(=O)N3CC(C)N(C(C)=O)c4ccc(-c5ccc(S(C)(=O)=O)cc5)cc43)cc12 (stereo not drawn) [Example I-883]
> 10000 nM

Which measured IC50 value corresponds to CCOC(=O)N1C[C@H](C)N(C(=O)C2CC2)c2ccc(-c3cnn(C4CC4)c3)cc21 [Example I-379] ?
100 to 1000 nM

Bench note: what IC50 did COC(=O)N1c2ccc(-c3ccc(N4CCCS4(=O)=O)cc3)cc2N(C(=O)Oc2ccccn2)C[C@@H]1C [Example I-1325] show?
1000 to 10000 nM

I would be grateful if you could share the reported IC50 for COC(=O)N1c2ccc(-c3cnn(CCS(C)(=O)=O)c3)cc2N(C(=O)OC(C)C)C[C@@H]1C [Example I-318] .
100 to 1000 nM

# get_value(readout='IC50', item= CC(=O)N1c2ccc(-c3ccc(S(=O)(=O)C(C)C)cc3)cc2N(C(=O)OC2CCCCC2)C[C@@H]1C [Example I-1231] )
100 to 1000 nM

GET /values?readout=IC50&item= CC(=O)N1CCC[C@H](CN2C[C@H](C)N(C(C)=O)c3ccccc32)C1 [Example I-928]
> 10000 nM

May I ask what IC50 has been recorded for CCS(=O)(=O)Nc1cccc(-c2ccc3c(c2)N(C(=O)OC2CCCCC2)C[C@H](C)N3C(C)=O)c1 [Example I-1227] ?
100 to 1000 nM

For CC(C)OC(=O)N1C[C@H](C)N(C(=O)C2CC2)c2ccc(-c3cnn(CCN4CCCS4(=O)=O)c3)cc21 [Example I-611] , what is its reported IC50?
100 to 1000 nM

Where these numbers come from: patent US10703764B2
